Cited source for all entries: patent US20210388081A1

# Tested Target: SLAMF9 protein (UniProt Q96A28 19-236, limits assumed)
# Sequence (Q96A28 19-236 limits assumed): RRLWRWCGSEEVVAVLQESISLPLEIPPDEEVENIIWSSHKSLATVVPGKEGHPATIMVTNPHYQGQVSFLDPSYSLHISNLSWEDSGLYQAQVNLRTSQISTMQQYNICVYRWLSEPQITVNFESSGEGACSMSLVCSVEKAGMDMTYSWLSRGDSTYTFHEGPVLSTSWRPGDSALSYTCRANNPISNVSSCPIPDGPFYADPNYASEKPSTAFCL
# Test Name: phage clone on SLAMF9 protein

| Binder | binding result |
| --- | --- |
| ET200-020 (scFv, screened as phage clone; entry is VL-linker-VH-His tag-HA tag) scFv: QSVVTQPPSVSAAPGQKVTISCSGSTSNIGNNDVSWYQQLPGTAPKLLIYDNNKRPSGIPDRFSGSKSGTSATLGITGLQTGDEADYYCGTWDSSVSASWVFGRGTKLTVLGSRGGGGSGGGGSGGGGSLEMAQVQLVQSGAEVKKPGASVKVSCKASGYTFTSYGISWVRQAPGQGLEWMGWISAYNGNTNYPQKLQGRVTMTTDPSTSTAYMELRSLRSDDTAVYYCARSMTSFDYWGQGTLVTVSSTSGQAGQHHHHHHGAYPYDVPDYAS | no binding |
| ET200-014 (scFv, screened as phage clone; entry is VL-linker-VH-His tag-HA tag) scFv: SYVLTQPPSVSVAPGKTARITCGGNNIGSKSVHWYQQKPGQAPVLVIYYDSDRPSGIPERFSGSNSGNTATLTISRVEAGDEADYYCQVWDSSSDHYVFGTGTKVTVLGSRGGGGSGGGGSGGGGSLEMAEVQLVETGGGLVQPGGSLRLSCAASGFTFSSYAMSWVRQAPGKGLEWVSAISGSDGSTYYADSVKGRFTISRDNSKNTLYLQMNSLRDEDTAVYYCARSHEANLVGDWWGQGTLVTVSSTSGQAGQHHHHHHGAYPYDVPDYAS | no binding |
